The measurements presented in this section are drawn from the Immune Epitope Database (IEDB).

Target: HLA-A*02:02
Assay: IEDB peptide-MHC binding, purified MHC/competitive/radioactivity; filed as Kd, often an IC50 or EC50 that approximates it; bounds were set here for any values at or beyond the usual limits of such assays
Conditions: source organism: Mammarenavirus guanaritoense

>  <Sequence string>
WSAIFFTTSL

>  <Study target>
HLA-A*02:02

>  <Kd (nM)>
2000

$$$$

---

Collected Kd values appear next to each entry.
Target: HLA-B*44:03
Test: IEDB peptide-MHC binding, purified MHC/competitive/radioactivity; filed as Kd, often an IC50 or EC50 that approximates it; bounds were set here for any values at or beyond the usual limits of such assays
Conditions: source organism: Mammarenavirus lassaense
Readout: Kd (µM)

>  <Sequence string>
YDFVLVGPC

>  <Readout>
Kd

>  <Endpoint unit>
µM

>  <Censoring qualifier>
=

>  <Readout value>
6.83

$$$$
>  <Sequence string>
NENPGGYCL

>  <Readout>
Kd

>  <Endpoint unit>
µM

>  <Censoring qualifier>
=

>  <Readout value>
0.259

$$$$
>  <Sequence string>
GEPKMTKAL

>  <Readout>
Kd

>  <Endpoint unit>
µM

>  <Censoring qualifier>
≥

>  <Readout value>
49.9

$$$$
>  <Sequence string>
EELITDVEFL

>  <Readout>
Kd

>  <Endpoint unit>
µM

>  <Censoring qualifier>
=

>  <Readout value>
6.37

$$$$

---

Target: HLA-B*18:01
Assay: IEDB peptide-MHC binding, purified MHC/direct/fluorescence; filed as Kd, often an IC50 or EC50 that approximates it; bounds were set here for any values at or beyond the usual limits of such assays
Details: source organism: Yellow fever virus
pKd: −log10 of the molar value.
Readout: pKd

>  <Sequence string>
YFHKRDMRL

>  <Readout value>
≤ 4.70

$$$$

---

Biological target: HLA-A*24:02
Assay: IEDB peptide-MHC binding, purified MHC/competitive/fluorescence; filed as Kd, often an IC50 or EC50 that approximates it; bounds were set here for any values at or beyond the usual limits of such assays
Conditions: source organism: Rickettsia felis URRWXCal2
pKd: −log10 of the molar value.

>  <Sequence string>
RWLPLVSLF

>  <pKd>
≥ 10.00

$$$$

---

Molecular target: HLA-A*02:01
Test: IEDB peptide-MHC binding, purified MHC/direct/fluorescence; filed as Kd, often an IC50 or EC50 that approximates it; bounds were set here for any values at or beyond the usual limits of such assays
Details: source organism: Human herpesvirus 4 strain B95-8
pKd: −log10 of the molar value.

>  <Sequence string>
EVFFGLSRY

>  <pKd>
≤ 5.00

$$$$

---

Molecular target: HLA-B*46:01
Assay: IEDB peptide-MHC binding, purified MHC/direct/fluorescence; filed as Kd, often an IC50 or EC50 that approximates it; bounds were set here for any values at or beyond the usual limits of such assays
Settings: source organism: Marburg virus - Musoke, Kenya, 1980
pKd: −log10 of the molar value.

>  <Sequence string>
NQQVTNSKY

>  <Study target>
HLA-B*46:01

>  <pKd>
≤ 4.70

$$$$

---

Molecular target: HLA-B*07:02
Test: IEDB peptide-MHC binding, purified MHC/direct/fluorescence; filed as Kd, often an IC50 or EC50 that approximates it; bounds were set here for any values at or beyond the usual limits of such assays
Settings: source organism: Vibrio cholerae
Readout: Kd

>  <Sequence string>
EGIEGRIAY

>  <Readout>
Kd

>  <Readout value>
≥ 20 µM

$$$$
